Target: Bombyx mori EcR (VP16 fusion, switch construct CVBE) with 6XEcRE LacZ reporter (Bombyx mori)
Construct: expressed in transfected cells; host or cells: Human 293 kidney (HEK-293) cells, retrovirally infected, clone Z3
Sequence (P49881 86-606 limits assumed): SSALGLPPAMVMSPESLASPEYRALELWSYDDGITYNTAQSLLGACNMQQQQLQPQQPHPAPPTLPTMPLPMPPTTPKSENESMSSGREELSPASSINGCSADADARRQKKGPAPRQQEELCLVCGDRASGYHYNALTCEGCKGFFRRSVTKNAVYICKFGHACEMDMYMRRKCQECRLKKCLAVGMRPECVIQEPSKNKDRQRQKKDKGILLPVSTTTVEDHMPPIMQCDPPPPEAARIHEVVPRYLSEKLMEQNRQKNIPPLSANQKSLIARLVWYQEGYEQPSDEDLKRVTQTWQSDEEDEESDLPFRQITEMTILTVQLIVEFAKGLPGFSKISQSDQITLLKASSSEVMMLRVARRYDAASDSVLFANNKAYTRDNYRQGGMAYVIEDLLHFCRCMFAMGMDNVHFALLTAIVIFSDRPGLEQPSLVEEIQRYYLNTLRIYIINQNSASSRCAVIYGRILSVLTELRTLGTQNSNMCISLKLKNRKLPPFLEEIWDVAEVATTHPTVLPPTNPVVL
Sequence (P19793 1-462 partner): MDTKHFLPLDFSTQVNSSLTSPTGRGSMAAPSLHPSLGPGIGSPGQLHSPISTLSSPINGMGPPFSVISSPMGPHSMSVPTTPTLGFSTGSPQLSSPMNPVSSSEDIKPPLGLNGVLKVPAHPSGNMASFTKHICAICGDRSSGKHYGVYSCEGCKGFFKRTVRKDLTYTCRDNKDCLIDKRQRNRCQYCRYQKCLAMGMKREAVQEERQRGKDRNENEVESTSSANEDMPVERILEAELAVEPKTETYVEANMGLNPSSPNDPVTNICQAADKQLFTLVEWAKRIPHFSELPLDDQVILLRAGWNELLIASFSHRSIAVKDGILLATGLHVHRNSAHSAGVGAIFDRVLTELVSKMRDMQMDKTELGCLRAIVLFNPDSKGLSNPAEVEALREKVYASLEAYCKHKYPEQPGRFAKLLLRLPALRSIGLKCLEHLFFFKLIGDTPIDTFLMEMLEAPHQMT
Assay: Z3 assay: β-galactosidase (LacZ) reporter gene fold induction in stably transformed human 293 kidney cells (clone Z3)
Assay type: cell-based
Settings: read-out: Fold Induction Average, Z3 Assay (33 μM)
measurement-kind: fold induction at 33 µM
// print number alone

Worked examples, 3 compounds total:
compound	fold induction at 33 µM
COc1cccc(C(=O)NC2(C(=O)c3cc(C)cc(C)c3)CCS(=O)(=O)CC2)c1C [Example 62]	347
COc1cccc(C(=O)NC2(C(=O)c3cccc(C)c3)CCSCC2)c1C [Example 26]	751
CCC(CC)(NC(=O)c1cccc(OC)c1C)C(=O)c1ccccc1OC [Example 37]	327

The compound listed as CCc1c(C(=O)NC2(C(=O)c3ccccc3)CCCC2)ccc2c1OCCO2 [Example 22] shows fold induction at 33 µM equal to 602

====

Molecular target: GAL4 DBD-CfEcR(DEF)/VP16AD-MmRXRE (Choristoneura fumiferana)
Sequence (O77240 1-513): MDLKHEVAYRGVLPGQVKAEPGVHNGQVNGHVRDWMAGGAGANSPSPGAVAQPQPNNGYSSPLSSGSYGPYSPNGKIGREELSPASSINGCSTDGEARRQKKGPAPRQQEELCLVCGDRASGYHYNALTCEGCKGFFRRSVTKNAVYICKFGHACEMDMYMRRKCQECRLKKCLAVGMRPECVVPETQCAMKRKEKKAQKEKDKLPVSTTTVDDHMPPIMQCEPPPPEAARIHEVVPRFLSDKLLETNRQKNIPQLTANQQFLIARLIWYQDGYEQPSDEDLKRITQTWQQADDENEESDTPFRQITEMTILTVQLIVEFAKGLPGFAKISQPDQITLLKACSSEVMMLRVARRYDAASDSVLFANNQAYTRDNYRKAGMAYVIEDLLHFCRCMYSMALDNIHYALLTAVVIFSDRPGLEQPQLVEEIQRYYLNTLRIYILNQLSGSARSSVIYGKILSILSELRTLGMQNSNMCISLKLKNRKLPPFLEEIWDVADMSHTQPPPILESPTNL
Test: cell-based
Reported Fold Induction Average, 13B3 Assay (33 μM) by item:
// print number alone

Worked examples, 6 compounds total:
compound	target-or-test-system	reading
Cc1c(C(=O)NC2(C(=O)c3ccccc3)CCCC2)ccc2c1OCO2 [Example 23]	GAL4 DBD-CfEcR(DEF)/VP16AD-MmRXRE (Choristoneura fumiferana)	2
COc1cccc(C(=O)NC2(C(=O)c3ccccc3C)CCCC2)c1C [Example 39]	GAL4 DBD-CfEcR(DEF)/VP16AD-MmRXRE (Choristoneura fumiferana)	24
COc1cccc(C(=O)NC(C)(Cc2ccccc2)C(=O)c2cccc(C)c2)c1C (centres unmarked) [Example 8]	GAL4 DBD-CfEcR(DEF)/VP16AD-MmRXRE (Choristoneura fumiferana)	2
COc1cccc(C(=O)NC(C)(Cc2ccccc2)C(=O)c2ccc(C)cc2)c1C (centres unmarked) [Example 16]	GAL4 DBD-CfEcR(DEF)/VP16AD-MmRXRE (Choristoneura fumiferana)	0
COc1cccc(C(=O)NC2(C(=O)c3cccc(C)c3)CCC(=O)CC2)c1C [Example 61]	GAL4 DBD-CfEcR(DEF)/VP16AD-MmRXRE (Choristoneura fumiferana)	0
COc1cccc(C(=O)NC(C)(C(C)=O)C(C)C)c1C (centres unmarked) [Example 112]	GAL4 DBD-CfEcR(DEF)/VP16AD-MmRXRE (Choristoneura fumiferana)	2

The compound listed as COc1cccc(C(=O)C(NC(=O)c2cccc(OC)c2C)C(C)(C)C)c1 (centres unmarked) [Example 114] shows Fold Induction Average, 13B3 Assay (33 μM) equal to 2

The compound listed as COc1cccc(C(=O)NC(C(=O)c2cccc(C)c2)C(C)(C)C)c1C (centres unmarked) [Example 113] shows Fold Induction Average, 13B3 Assay (33 μM) equal to 1
